TARGET OR SYSTEM: Cyclin-dependent kinase 4/cyclin D1 (Homo sapiens, UniProt P11802)
Sequence (P11802 whole entry): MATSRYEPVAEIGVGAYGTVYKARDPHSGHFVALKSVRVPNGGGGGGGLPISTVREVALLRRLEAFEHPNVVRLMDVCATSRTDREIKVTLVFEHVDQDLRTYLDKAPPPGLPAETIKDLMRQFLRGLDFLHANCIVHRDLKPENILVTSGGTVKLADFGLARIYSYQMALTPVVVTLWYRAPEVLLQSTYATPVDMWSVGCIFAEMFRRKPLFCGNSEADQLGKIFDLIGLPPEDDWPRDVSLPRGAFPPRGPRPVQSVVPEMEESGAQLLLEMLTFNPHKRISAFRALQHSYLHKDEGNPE
Sequence (P24385 whole entry, further chain): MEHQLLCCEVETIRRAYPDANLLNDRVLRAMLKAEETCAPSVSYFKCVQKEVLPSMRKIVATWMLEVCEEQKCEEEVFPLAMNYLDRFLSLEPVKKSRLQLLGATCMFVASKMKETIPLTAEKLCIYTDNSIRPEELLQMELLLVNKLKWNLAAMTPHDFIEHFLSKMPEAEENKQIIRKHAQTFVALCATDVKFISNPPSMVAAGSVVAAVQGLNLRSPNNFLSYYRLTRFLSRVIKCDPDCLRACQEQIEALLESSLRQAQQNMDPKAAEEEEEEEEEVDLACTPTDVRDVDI
PROTOCOL: Inhibitory activity against baculovirus expressed Cyclin dependent kinase 4-cyclinD1
I'd appreciate it if you could supply IC50 values for the items below.
Form entry: value (nM) — number only.

# compound `CC(C)C(=O)Nc1ncc(SCc2ncc(C(C)(C)C)o2)s1` ; its IC50 = 900

IC50 for `CC(C)(C)C(=O)Nc1ncc(SCc2ncc(C(C)(C)C)o2)s1` is 3480

Input `CC(C)(C)c1cnc(CSc2cnc(NC(=O)Nc3ccc(F)cc3)s2)o1` . Output IC50: 900

Entry `CC(=O)Nc1ncc(SCc2ncc(CC3CCCCC3)o2)s1` ; IC50 = 640

Record `CCc1cnc(CSc2cnc(NC(=O)C(C)C)s2)o1` , field IC50: 1070

compound `C[C@@H](C(=O)Nc1ncc(SCc2ncc(C(C)(C)C)o2)s1)c1ccccc1` , IC50 observed: 3130

Entry under test: `CC(=O)Nc1ncc(SCc2ncc(-c3ccccc3)o2)s1` . Its IC50 was 4510

Record summary for `CC(C)(C)c1cnc(CSc2cnc(NC(=O)Nc3c(F)cccc3F)s2)o1` : reported IC50 = 390

Per the records, this compound ( `CC(C)(C)c1cnc(CSc2cnc(NC(=O)c3ccccc3)s2)o1` ) has IC50 equal to 960

The value of IC50 measured for the compound `CC(C)(C)c1cnc(CSc2cnc(NC(=O)Cc3ccc(CNC(CO)CO)cc3)s2)o1` turned out to be 100
